Would you mind telling me the reported pIC50 of each entry?
- target of assay: human Nav1.8/b3 (Homo sapiens)
- Construct: expressed in transfected cells; host or cells: CHO
- Sequence (Q9Y5Y9 whole entry): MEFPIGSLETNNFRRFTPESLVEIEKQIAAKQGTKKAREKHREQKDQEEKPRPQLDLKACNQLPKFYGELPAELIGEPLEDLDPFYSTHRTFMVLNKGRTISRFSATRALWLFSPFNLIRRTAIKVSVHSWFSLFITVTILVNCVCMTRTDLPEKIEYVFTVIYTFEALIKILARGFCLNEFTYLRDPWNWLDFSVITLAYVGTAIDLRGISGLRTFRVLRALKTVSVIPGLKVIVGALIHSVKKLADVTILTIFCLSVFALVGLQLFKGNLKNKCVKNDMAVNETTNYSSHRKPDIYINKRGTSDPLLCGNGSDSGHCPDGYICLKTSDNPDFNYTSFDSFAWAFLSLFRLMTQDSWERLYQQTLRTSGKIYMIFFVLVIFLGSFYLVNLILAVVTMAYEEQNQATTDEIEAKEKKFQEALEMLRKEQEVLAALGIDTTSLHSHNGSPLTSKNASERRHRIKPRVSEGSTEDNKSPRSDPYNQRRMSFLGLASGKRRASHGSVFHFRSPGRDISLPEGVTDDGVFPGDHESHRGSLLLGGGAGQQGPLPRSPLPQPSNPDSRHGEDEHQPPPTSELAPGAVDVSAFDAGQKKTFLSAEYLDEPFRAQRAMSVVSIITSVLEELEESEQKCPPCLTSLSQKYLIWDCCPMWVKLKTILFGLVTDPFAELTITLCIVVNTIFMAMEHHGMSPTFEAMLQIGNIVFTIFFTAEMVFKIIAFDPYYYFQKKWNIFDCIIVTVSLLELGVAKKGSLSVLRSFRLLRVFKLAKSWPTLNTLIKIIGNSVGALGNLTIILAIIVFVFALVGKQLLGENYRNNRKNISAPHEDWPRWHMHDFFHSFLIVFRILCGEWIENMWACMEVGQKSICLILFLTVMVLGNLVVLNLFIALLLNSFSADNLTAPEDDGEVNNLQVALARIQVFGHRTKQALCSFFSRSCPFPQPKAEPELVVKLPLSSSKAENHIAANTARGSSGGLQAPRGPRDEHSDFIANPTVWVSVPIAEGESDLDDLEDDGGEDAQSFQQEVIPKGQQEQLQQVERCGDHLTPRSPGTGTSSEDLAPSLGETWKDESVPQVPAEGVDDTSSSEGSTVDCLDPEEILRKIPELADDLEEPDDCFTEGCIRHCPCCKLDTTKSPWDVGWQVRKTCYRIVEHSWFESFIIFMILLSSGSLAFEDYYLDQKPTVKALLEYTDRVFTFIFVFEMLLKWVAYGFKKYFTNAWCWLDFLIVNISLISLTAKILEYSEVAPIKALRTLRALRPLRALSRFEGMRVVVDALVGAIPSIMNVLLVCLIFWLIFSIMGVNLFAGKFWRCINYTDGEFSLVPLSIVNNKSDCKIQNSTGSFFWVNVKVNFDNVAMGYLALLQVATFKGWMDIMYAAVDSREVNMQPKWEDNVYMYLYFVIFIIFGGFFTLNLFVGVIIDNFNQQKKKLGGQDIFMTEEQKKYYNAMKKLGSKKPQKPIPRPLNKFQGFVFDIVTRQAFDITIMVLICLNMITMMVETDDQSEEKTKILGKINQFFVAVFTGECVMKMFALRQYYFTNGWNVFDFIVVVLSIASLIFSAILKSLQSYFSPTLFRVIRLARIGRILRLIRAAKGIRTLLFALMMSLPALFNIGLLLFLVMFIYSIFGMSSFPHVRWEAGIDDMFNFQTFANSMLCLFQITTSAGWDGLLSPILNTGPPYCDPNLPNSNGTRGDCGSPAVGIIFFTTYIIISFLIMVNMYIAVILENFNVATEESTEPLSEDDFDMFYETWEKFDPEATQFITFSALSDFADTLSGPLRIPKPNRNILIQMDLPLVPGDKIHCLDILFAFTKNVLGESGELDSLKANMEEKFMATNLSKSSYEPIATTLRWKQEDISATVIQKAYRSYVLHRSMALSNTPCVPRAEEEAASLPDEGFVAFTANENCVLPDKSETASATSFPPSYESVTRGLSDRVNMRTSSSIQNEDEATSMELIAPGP
- Sequence (Q9NY72 23-215 partner): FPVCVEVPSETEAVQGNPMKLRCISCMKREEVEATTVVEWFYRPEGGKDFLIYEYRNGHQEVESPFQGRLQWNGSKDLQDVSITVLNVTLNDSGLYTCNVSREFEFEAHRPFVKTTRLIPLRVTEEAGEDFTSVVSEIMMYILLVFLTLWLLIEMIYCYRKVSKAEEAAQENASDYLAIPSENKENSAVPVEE
- experiment description: Compound Profiling Human NaV1.8/β3 Cell Line—SyncroPatch384PE Assay (automated patch clamp, stably transfected CHO cells)
- Assay type: cell-based
- condition description: P2 (IC50, inactivated state block), P2 measurement, inactivated state block; Nav1.8/b3 CHO cells, inactivation step −35 mV 10 sec; second set of compounds
pIC50: −log10 of the molar value.

Cc1nc(F)ccc1Oc1cc(C(F)(F)F)c(Cl)cc1C(=O)Nc1cccc([S@@](C)(=O)=NC(=O)C(C)(C)N)c1 [Example 7B]; > 8.30

Can you give me pIC50 for all of these, one by one?
1. Cc1nc(F)ccc1Oc1ccc(C(F)(F)F)c(F)c1C(=O)Nc1cccc([S@@](C)(=O)=NC(=O)[C@H](C)O)c1 [Example 18B]
2. Cc1nc(F)ccc1Oc1cc(C(F)(F)F)ccc1C(=O)Nc1cccc([S@@](C)(=O)=NC(=O)CN)c1 [Example 14B]
3. Cc1nc(F)ccc1Oc1ccc(C(F)(F)F)c(C)c1C(=O)Nc1cccc([S@@](C)(=O)=NC(=O)[C@@H](C)N)c1 [Example 24B]
4. Cc1nc(F)ccc1Oc1cc(C(F)(F)F)c(Cl)cc1C(=O)Nc1cccc([S@@](C)(=O)=NC(=O)[C@H](C)O)c1 [Example 3B]
5. Cc1nc(F)ccc1Oc1ccc(C(F)(F)F)c(F)c1C(=O)Nc1cccc([S@@](C)(=O)=NC(=O)[C@@H](C)O)c1 [Example 19B]

Response given:
1: > 8.30; 2: 7.30 to 8.30; 3: > 8.30; 4: > 8.30; 5: > 8.30
